These measurements were taken from the supplement of paper PMC10307832.

Field: relative viability. Provide a value for each of the compounds that follow.
Test system: NCI-H1993
Test: relative viability (nuclei count vs DMSO), 5 days (fraction); higher = more cells survive
Settings: first compound 0.01581 µM
One number for each entry.

Nc1ccn([C@@H]2O[C@H](CO)[C@@H](O)[C@@H]2O)c(=O)n1 [Cytarabine] + CS(=O)(=O)CCNCc1ccc(-c2ccc3ncnc(Nc4ccc(OCc5cccc(F)c5)c(Cl)c4)c3c2)o1 [Lapatinib] (partner 2 µM)	0.929

// next entry
Record summary for Nc1ccn([C@@H]2O[C@H](CO)[C@@H](O)[C@@H]2O)c(=O)n1 [Cytarabine] + COc1cccc2cc(-c3nc([C@H]4CC[C@H](C(=O)O)CC4)n4ncnc(N)c34)[nH]c12 [OSI-027] (partner 0.5 µM) : reported relative viability = 0.56

* * *

System: HCC-366
Assay: relative viability (nuclei count vs DMSO), 5 days (fraction); higher = more cells survive
Settings: first compound 0.8 µM
Field: relative viability. Provide a value for each of the molecules that follow.
Give bare numbers.

O=c1[nH]c2ccccc2n1C1CCN(CCCC(c2ccc(F)cc2)c2ccc(F)cc2)CC1 [Pimozide] + CC(C)C[C@H](NC(=O)[C@H](Cc1ccccc1)NC(=O)c1cnccn1)B(O)O [Bortezomib] (partner 0.002 µM)	0.985

Record summary for Cc1cnc(-c2cnc(NCCNc3ccc(C#N)cn3)nc2-c2ccc(Cl)cc2Cl)[nH]1 + CC(C)C[C@H](NC(=O)[C@H](Cc1ccccc1)NC(=O)c1cnccn1)B(O)O [Bortezomib] (partner 0.002 µM) : reported relative viability = 0.967

* * *

System: CAL-12T
Assay: relative viability (nuclei count vs DMSO), 5 days (fraction); higher = more cells survive
Conditions: first compound 0.005 µM
Each record's class is read off its relative viability using these ranges: low group: < 0.6; middle group: ≥ 0.6 and < 0.8; high group: ≥ 0.8

Completed entries (count: 8):
Nc1ccn([C@@H]2O[C@H](CO)[C@@H](O)[C@@H]2O)c(=O)n1 [Cytarabine] + COc1cccc2cc(-c3nc([C@H]4CC[C@H](C(=O)O)CC4)n4ncnc(N)c34)[nH]c12 [OSI-027] (partner 0.5 µM)	middle group
Nc1ccn([C@@H]2O[C@H](CO)[C@@H](O)[C@@H]2O)c(=O)n1 [Cytarabine] + C[C@]1(O)C[C@@H](c2nc(-c3ccc4ccc(-c5ccccc5)nc4c3)c3c(N)nccn32)C1 [Linsitinib] (partner 1 µM)	middle group
COc1cc2nccc(Oc3ccc(NC(=O)Nc4cc(C)on4)c(Cl)c3)c2cc1OC [Tivozanib] + CS(=O)(=O)CCNCc1ccc(-c2ccc3ncnc(Nc4ccc(OCc5cccc(F)c5)c(Cl)c4)c3c2)o1 [Lapatinib] (partner 2 µM)	low group
COc1cc2nccc(Oc3ccc(NC(=O)Nc4cc(C)on4)c(Cl)c3)c2cc1OC [Tivozanib] + Nc1nc2[nH]cc(CCc3ccc(C(=O)N[C@@H](CCC(=O)O)C(=O)O)cc3)c2c(=O)[nH]1 [Pemetrexed] (partner 0.2 µM)	high group
Nc1ccn([C@@H]2O[C@H](CO)[C@@H](O)[C@@H]2O)c(=O)n1 [Cytarabine] + COc1cc2c(Oc3ccc(NC(=O)C4(C(=O)Nc5ccc(F)cc5)CC4)cc3F)ccnc2cc1OCCCN1CCOCC1 [Foretinib] (partner 0.25 µM)	high group
COc1cc2nccc(Oc3ccc(NC(=O)Nc4cc(C)on4)c(Cl)c3)c2cc1OC [Tivozanib] + CC(=O)c1c(C)c2cnc(Nc3ccc(N4CCNCC4)cn3)nc2n(C2CCCC2)c1=O [Palbociclib] (partner 0.5 µM)	low group
COc1cc2nccc(Oc3ccc(NC(=O)Nc4cc(C)on4)c(Cl)c3)c2cc1OC [Tivozanib] + C[C@]1(O)C[C@@H](c2nc(-c3ccc4ccc(-c5ccccc5)nc4c3)c3c(N)nccn32)C1 [Linsitinib] (partner 1 µM)	middle group
Nc1ccn([C@@H]2O[C@H](CO)[C@@H](O)[C@@H]2O)c(=O)n1 [Cytarabine] + CC(=O)c1c(C)c2cnc(Nc3ccc(N4CCNCC4)cn3)nc2n(C2CCCC2)c1=O [Palbociclib] (partner 0.5 µM)	low group

**Query** Category lookup for the compound Nc1ccn([C@@H]2O[C@H](CO)[C@@H](O)[C@@H]2O)c(=O)n1 [Cytarabine] + CS(=O)(=O)CCNCc1ccc(-c2ccc3ncnc(Nc4ccc(OCc5cccc(F)c5)c(Cl)c4)c3c2)o1 [Lapatinib] (partner 2 µM)
**Result** high group
